system: MRSA ATCC 33592; test: MIC, broth microdilution; format: cell-based; settings: Staphylococcus aureus; MRSA ATCC 33592; read-out: MIC
Listed next: entries and their corresponding MIC.
Write the answer as a number in µg/mL, unit excluded.

Worked set:
[[record]]
compound = "C[C@@H]1C[C@H](C)CN(S(=O)(=O)c2ccc(C(=O)Nc3nnc(-c4cccc(C(F)(F)F)c4)o3)cc2)C1 [HSGN-122]"
readout_type = "MIC"
value_observed = 1

[[record]]
compound = "COc1cccc(-c2nnc(NC(=O)c3ccc(S(=O)(=O)N(C)CC4CCCO4)cc3)o2)c1 (stereo not shown) [Compound G8]"
readout_type = "MIC"
value_observed = 32

[[record]]
compound = "C[C@@H]1C[C@H](C)CN(S(=O)(=O)c2cccc(C(=O)Nc3nnc(-c4ccc(C(F)(F)F)cc4)o3)c2)C1 [HSGN-176]"
readout_type = "MIC"
value_observed = 8


Task: State its MIC: C[C@@H]1C[C@H](C)CN(S(=O)(=O)c2ccc(C(=O)Nc3nnc(-c4cccc(F)c4)o3)cc2)C1 [HSGN-111]
Output: 0.5

Task: State its MIC: Cc1ccc(-c2nnc(NC(=O)c3ccc(S(=O)(=O)N4C[C@H](C)C[C@H](C)C4)cc3)o2)cc1 [HSGN-181]
Output: 8
